subject-of-test: human TLR9 (Homo sapiens, UniProt Q9NR96)
Construct: host or cells: HEK-Blue cells
Sequence (Q9NR96 26-1032): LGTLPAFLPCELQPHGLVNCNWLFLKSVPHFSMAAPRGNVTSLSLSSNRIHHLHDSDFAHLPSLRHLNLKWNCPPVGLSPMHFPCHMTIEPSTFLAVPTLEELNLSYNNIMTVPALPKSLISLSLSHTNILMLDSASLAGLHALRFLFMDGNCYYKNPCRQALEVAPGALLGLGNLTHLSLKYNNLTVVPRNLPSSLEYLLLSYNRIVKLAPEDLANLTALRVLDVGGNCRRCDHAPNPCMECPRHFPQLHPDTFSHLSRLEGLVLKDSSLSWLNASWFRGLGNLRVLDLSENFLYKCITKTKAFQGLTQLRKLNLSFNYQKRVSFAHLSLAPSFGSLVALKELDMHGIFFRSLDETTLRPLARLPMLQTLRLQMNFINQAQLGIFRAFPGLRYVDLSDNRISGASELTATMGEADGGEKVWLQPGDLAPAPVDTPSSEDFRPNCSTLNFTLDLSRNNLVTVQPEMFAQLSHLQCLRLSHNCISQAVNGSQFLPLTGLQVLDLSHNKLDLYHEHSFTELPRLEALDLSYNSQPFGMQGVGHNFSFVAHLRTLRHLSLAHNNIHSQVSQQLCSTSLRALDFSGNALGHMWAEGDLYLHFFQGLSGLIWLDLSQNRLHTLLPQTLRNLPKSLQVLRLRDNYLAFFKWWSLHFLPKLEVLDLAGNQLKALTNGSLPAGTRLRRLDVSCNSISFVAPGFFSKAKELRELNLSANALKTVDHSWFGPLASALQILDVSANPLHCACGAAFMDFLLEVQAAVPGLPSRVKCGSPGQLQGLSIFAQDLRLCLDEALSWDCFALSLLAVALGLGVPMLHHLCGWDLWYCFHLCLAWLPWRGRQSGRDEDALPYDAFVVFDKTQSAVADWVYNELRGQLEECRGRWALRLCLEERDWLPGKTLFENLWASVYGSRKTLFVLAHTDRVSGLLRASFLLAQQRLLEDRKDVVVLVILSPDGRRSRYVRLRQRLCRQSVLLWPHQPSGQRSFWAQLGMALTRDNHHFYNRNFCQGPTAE
procedure-summary: TLR9 inhibition reporter assay (HEK-Blue cells, SEAP reporter, ODN2006 stimulation)
Format: cell-based
particulars: HEK-Blue cells overexpressing human TLR9, SEAP reporter, ODN2006 5 nM
Under this convention, class 1 denotes IC50 strictly below 10 µM and class 0 denotes IC50 at or above 10 µM.

[[record]]
molecule = "Cc1c(-c2[nH]c3sc(C4CCC(N5CC6(COC6)C5)CC4)nc3c2C(C)C)cn(C)c(=O)c1C (single isomer, unassigned) [Example 245]"
assigned_category = "class 0"

[[record]]
molecule = "Cc1c(-c2[nH]c3sc(N4C[C@@H](C)N(C(C)C)C[C@@H]4C)nc3c2C(C)C)cn2ncnc2c1C [Example 330]"
assigned_category = "class 0"

[[record]]
molecule = "COC1CN(C2CCC(c3nc4c(C(C)C)c(-c5cn6ncnc6c(C)c5C)[nH]c4s3)CC2)C1 (single isomer, unassigned) [Example 188]"
assigned_category = "class 0"

[[record]]
molecule = "COc1cc(-c2[nH]c3sc(C4CCC(N5CC[C@@H](NC(C)=O)C5)CC4)nc3c2C(C)C)cn2ncnc12 (single isomer, unassigned) [Example 101]"
assigned_category = "class 1"

[[record]]
molecule = "CC(C)c1c(-c2cn(C)c3ncccc23)[nH]c2sc(C3CCNCC3)nc12"
assigned_category = "class 0"

[[record]]
molecule = "COc1cc(-c2[nH]c3sc(C4CCNCC4)nc3c2C(C)C)cn2ncnc12"
assigned_category = "class 1"

[[record]]
molecule = "Cc1c(-c2[nH]c3sc(N4CCN(C(C)C)CC4)nc3c2C(C)C)cn2ncnc2c1C"
assigned_category = "class 0"


* * *

subject-of-test: human TLR7 (Homo sapiens, UniProt Q9NYK1)
Construct: host or cells: HEK-Blue cells
Sequence (Q9NYK1 27-1049): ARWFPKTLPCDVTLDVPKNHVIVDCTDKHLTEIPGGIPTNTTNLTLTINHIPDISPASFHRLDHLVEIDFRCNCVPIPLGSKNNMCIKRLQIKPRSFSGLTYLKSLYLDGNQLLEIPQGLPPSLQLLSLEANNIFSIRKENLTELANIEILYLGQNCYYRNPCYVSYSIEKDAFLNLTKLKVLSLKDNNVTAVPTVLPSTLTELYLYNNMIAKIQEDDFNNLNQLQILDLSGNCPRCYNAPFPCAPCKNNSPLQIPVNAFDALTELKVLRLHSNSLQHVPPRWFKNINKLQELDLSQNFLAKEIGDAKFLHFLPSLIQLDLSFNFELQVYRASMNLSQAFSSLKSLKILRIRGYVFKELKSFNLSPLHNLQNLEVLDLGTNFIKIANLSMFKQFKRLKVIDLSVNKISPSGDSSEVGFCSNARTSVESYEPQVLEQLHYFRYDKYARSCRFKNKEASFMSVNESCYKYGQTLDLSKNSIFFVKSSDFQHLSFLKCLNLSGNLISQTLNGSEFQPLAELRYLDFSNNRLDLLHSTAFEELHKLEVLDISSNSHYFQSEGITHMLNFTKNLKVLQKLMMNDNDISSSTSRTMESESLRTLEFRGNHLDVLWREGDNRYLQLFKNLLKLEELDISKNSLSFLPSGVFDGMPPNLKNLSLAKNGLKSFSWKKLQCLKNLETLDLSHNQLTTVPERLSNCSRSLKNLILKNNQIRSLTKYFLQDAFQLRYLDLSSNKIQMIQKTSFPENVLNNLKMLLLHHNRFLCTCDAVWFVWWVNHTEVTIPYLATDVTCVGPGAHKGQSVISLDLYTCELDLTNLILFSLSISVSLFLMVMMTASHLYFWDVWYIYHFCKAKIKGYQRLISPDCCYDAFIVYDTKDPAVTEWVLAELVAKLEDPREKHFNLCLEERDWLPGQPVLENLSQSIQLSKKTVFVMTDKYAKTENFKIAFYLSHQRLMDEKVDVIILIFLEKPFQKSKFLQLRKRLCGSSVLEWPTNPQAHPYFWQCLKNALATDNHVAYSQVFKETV
procedure-summary: TLR7 inhibition reporter assay (HEK-Blue cells, SEAP reporter, gardiquimod stimulation)
Type: cell-based
particulars: HEK-Blue cells overexpressing human TLR7, SEAP reporter, gardiquimod 7.5 μM; read-out: TLR7 IC50
assay-endpoint: log10(IC50) (log10 of the value in nM)

[[record]]
molecule = "COc1cc(-c2[nH]c3sc(C4CCC(N(C)C5COC5)CC4)nc3c2C(C)C)cn2ncnc12 (centres unmarked) [Example 124]"
assay_endpoint = "log10(IC50)"
reported = 0.89

[[record]]
molecule = "Cc1c(-c2[nH]c3sc(C4CCC(NC(C)C)CC4)nc3c2C(C)C)cn(C)c(=O)c1C (single isomer, unassigned) [Example 254]"
assay_endpoint = "log10(IC50)"
reported = 1.43

[[record]]
molecule = "Cc1c(-c2[nH]c3sc(C(=O)N4CC(F)C4)nc3c2C(C)C)cn2ncnc2c1C"
assay_endpoint = "log10(IC50)"
reported = 1.75

[[record]]
molecule = "Cc1cc(-c2[nH]c3sc(N4CCN(CC(C)C)C[C@H]4C)nc3c2C(C)C)cn2ncnc12"
assay_endpoint = "log10(IC50)"
reported = 2.86

[[record]]
molecule = "Cc1c(-c2[nH]c3sc(N4CCN(C(=O)C5CCS(=O)(=O)CC5)C[C@@H]4C)nc3c2C(C)C)cn2ncnc2c1C"
assay_endpoint = "log10(IC50)"
reported = 1.36

[[record]]
molecule = "COc1cc(-c2[nH]c3sc(C4CCC(NC5COC5)CC4)nc3c2C(C)C)cn2ncnc12 (single isomer, unassigned) [Example 65]"
assay_endpoint = "log10(IC50)"
reported = -0.26

[[record]]
molecule = "Cc1c(-c2[nH]c3sc(C(=O)NC4CCC(N(C)C)CC4)nc3c2C(C)C)cn2ncnc2c1C (single isomer, unassigned) [Example 368]"
assay_endpoint = "log10(IC50)"
reported = 1.02

[[record]]
molecule = "Cc1cc(-c2[nH]c3sc(C4CCN(CC(=O)N(C)C)CC4)nc3c2C(C)C)cn2ncnc12"
assay_endpoint = "log10(IC50)"
reported = 0.91

[[record]]
molecule = "CNC(=O)CN1CCN(c2nc3c(C(C)C)c(-c4cn5ncnc5c(C)c4C)[nH]c3s2)CC1"
assay_endpoint = "log10(IC50)"
reported = 0.98

[[record]]
molecule = "Cc1c(-c2[nH]c3sc(C4CCC(N5CCC6(CC5)COC6)CC4)nc3c2C(C)C)cn2ncnc2c1C (single isomer, unassigned) [Example 238]"
assay_endpoint = "log10(IC50)"
reported = 0.73

[[record]]
molecule = "Cc1cc(-c2[nH]c3sc(C4CCN(C5COC5)CC4)nc3c2C(C)C)cn2ncnc12"
assay_endpoint = "log10(IC50)"
reported = 0.57

[[record]]
molecule = "Cc1c(-c2[nH]c3sc(C4CCC(N5CC(F)C5)CC4)nc3c2C(C)C)cn(C)c(=O)c1C (single isomer, unassigned) [Example 265]"
assay_endpoint = "log10(IC50)"
reported = 1.15

[[record]]
molecule = "CCc1c(-c2cc(OC)c3ncnn3c2)[nH]c2sc(C3CCC(N4CC5(COC5)C4)CC3)nc12 (single isomer, unassigned) [Example 270]"
assay_endpoint = "log10(IC50)"
reported = 0.95

[[record]]
molecule = "Cc1c(-c2[nH]c3sc(N4C[C@@H](C)N(CC(=O)N(C)C)C[C@@H]4C)nc3c2C(C)C)cn2ncnc2c1C"
assay_endpoint = "log10(IC50)"
reported = 1.19


* * *

subject-of-test: human TLR8 (Homo sapiens, UniProt Q9NR97)
Construct: host or cells: HEK-Blue cells
Sequence (Q9NR97 27-1041): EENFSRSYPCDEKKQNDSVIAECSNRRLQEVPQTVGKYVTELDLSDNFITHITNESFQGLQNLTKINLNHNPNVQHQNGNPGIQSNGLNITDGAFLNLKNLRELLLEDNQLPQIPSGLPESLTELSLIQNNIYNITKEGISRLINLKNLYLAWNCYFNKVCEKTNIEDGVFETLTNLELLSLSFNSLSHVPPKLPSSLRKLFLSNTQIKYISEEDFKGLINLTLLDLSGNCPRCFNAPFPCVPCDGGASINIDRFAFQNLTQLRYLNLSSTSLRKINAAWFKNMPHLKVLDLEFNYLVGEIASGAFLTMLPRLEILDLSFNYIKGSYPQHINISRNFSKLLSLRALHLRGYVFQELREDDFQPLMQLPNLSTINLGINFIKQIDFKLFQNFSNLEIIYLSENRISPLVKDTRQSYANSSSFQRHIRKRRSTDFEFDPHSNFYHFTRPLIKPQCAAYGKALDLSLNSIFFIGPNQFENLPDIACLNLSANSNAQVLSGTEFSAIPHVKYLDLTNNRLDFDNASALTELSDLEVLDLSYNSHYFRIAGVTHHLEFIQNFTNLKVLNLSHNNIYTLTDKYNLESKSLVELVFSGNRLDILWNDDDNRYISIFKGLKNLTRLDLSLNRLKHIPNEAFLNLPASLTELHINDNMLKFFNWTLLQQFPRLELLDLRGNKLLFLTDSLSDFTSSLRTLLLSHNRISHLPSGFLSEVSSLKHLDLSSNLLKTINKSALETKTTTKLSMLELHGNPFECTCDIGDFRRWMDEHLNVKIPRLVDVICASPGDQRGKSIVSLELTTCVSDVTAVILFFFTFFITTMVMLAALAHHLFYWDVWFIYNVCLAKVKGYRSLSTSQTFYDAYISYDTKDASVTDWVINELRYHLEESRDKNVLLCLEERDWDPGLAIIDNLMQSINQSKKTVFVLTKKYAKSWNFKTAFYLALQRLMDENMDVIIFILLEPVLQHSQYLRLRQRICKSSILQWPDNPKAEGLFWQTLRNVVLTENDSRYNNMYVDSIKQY
procedure-summary: TLR8 inhibition reporter assay (HEK-Blue cells, SEAP reporter, R848 stimulation)
Type: cell-based
particulars: HEK-Blue cells overexpressing human TLR8, SEAP reporter, R848 15.9 μM; read-out: TLR8 IC50
pIC50: −log10 of the molar value.
Each entry below carries its reported pIC50.
assay-endpoint: pIC50

[[record]]
compound = "Cc1c(-c2[nH]c3sc(C(=O)NCCC4CCN(C)CC4)nc3c2C(C)C)cn2ncnc2c1C"
assay_endpoint = "pIC50"
reported = 8.04

[[record]]
compound = "Cc1cc2ncnn2cc1-c1[nH]c2sc(C3CCC(NC4CCOCC4)CC3)nc2c1C(C)C (single isomer, unassigned) [Example 161]"
assay_endpoint = "pIC50"
reported = 7.83

[[record]]
compound = "Cc1cc2ncnn2cc1-c1[nH]c2sc(C3CCC(NC4(C)COC4)CC3)nc2c1C(C)C (single isomer, unassigned) [Example 145]"
assay_endpoint = "pIC50"
reported = 7.38

[[record]]
compound = "Cc1c(-c2[nH]c3sc(C4CCN(C5COC5)CC4)nc3c2C(C)C)cn(C)c(=O)c1C"
assay_endpoint = "pIC50"
reported = 7.55


* * *

subject-of-test: human TLR8 (Homo sapiens)
Construct: host or cells: HEK-Blue cells
procedure-summary: TLR8 inhibition reporter assay (HEK-Blue cells, SEAP reporter, R848 stimulation)
Type: cell-based
particulars: HEK-Blue cells overexpressing human TLR8, SEAP reporter, R848 15.9 μM; read-out: TLR8 IC50
pIC50: −log10 of the molar value.
pIC50 below 8 gives Not met; pIC50 at or above it gives Met.

[[record]]
compound = "CC(C)c1c(-c2ccc(C#N)c3ncccc23)[nH]c2sc(C3CCN(C(=O)CN(C)C)CC3)nc12 [Example 39]"
assigned_category = "Not met"

[[record]]
compound = "COc1cc(-c2[nH]c3sc(C4CCC(N5CC6(CCOCC6)C5)CC4)nc3c2C(C)C)cn2ncnc12 (single isomer, unassigned) [Example 111]"
assigned_category = "Not met"

[[record]]
compound = "Cc1c(-c2[nH]c3sc(N4CCN(CC(C)(C)O)CC4)nc3c2C(C)C)cn2ncnc2c1C [Example 281]"
assigned_category = "Met"

[[record]]
compound = "COc1cc(-c2[nH]c3sc(C4CCN(CC5(C)COC5)CC4)nc3c2C(C)C)cn2ncnc12 [Example 14]"
assigned_category = "Met"

[[record]]
compound = "Cc1c(-c2[nH]c3sc(C4CCC(NCC(C)(C)O)CC4)nc3c2C(C)C)cn(C)c(=O)c1C (single isomer, unassigned) [Example 252]"
assigned_category = "Not met"

[[record]]
compound = "Cc1c(-c2[nH]c3sc(CN4CC5(CNC5)C4)nc3c2C(C)C)cn2ncnc2c1C [Example 409]"
assigned_category = "Not met"

[[record]]
compound = "Cc1c(-c2[nH]c3sc(C4CCC(N5CC(F)C5)CC4)nc3c2C(C)C)cn(C)c(=O)c1C (single isomer, unassigned) [Example 266]"
assigned_category = "Not met"

[[record]]
compound = "COc1cc(-c2[nH]c3sc(C4CCC(NCC(C)(C)O)CC4)nc3c2C(C)C)cn2ncnc12 (single isomer, unassigned) [Example 84]"
assigned_category = "Met"

[[record]]
compound = "COc1cc(-c2[nH]c3sc(C4CCC(N5[C@@H]6CC[C@H]5COC6)CC4)nc3c2C(C)C)cn2ncnc12 (single isomer, unassigned) [Example 105]"
assigned_category = "Not met"

[[record]]
compound = "Cc1c(-c2[nH]c3sc(C(=O)N4CCN(C(C)C)CC4)nc3c2C(C)C)cn2ncnc2c1C [Example 380]"
assigned_category = "Met"

